assayed-system: Ret(V804M)(h) (Homo sapiens, UniProt P07949, V804M)
experiment: Kinase Profiling Assay
Assay type: biochemical
condition-summary: peptide 100 μM
No end group written: not given here.
Please respond with reported % activity for every item in the list.
# number only, unit % dropped from output

Data request: Param readout= % activity; system= Ret(V804M)(h) (Homo sapiens, UniProt P07949, V804M); entry= YARAAARQARAKALARQLGVAA [MMI-0100] ; returns value.
Data returned: 92

Data request: Param readout= % activity; system= Ret(V804M)(h) (Homo sapiens, UniProt P07949, V804M); entry= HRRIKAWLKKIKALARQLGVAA (Mammal) [MMI-0500] ; returns value.
Data returned: 36

Data request: Param readout= % activity; system= Ret(V804M)(h) (Homo sapiens, UniProt P07949, V804M); entry= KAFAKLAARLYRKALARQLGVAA [MMI-0400] ; returns value.
Data returned: 87

Data request: Param readout= % activity; system= Ret(V804M)(h) (Homo sapiens, UniProt P07949, V804M); entry= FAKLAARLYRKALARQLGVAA [MMI-0300] ; returns value.
Data returned: 95

// provenance: patent US20150258192A1
